molecular target: rh-α5β1 (Homo sapiens, UniProt P05556+P08648); test: Competition binding studies by Biolayer Interferometry (epitope groups); conditions: antibody preincubated with rh-α5β1; C-14D12 immobilized on sensor
Sequence (P08648 42-894 limits assumed): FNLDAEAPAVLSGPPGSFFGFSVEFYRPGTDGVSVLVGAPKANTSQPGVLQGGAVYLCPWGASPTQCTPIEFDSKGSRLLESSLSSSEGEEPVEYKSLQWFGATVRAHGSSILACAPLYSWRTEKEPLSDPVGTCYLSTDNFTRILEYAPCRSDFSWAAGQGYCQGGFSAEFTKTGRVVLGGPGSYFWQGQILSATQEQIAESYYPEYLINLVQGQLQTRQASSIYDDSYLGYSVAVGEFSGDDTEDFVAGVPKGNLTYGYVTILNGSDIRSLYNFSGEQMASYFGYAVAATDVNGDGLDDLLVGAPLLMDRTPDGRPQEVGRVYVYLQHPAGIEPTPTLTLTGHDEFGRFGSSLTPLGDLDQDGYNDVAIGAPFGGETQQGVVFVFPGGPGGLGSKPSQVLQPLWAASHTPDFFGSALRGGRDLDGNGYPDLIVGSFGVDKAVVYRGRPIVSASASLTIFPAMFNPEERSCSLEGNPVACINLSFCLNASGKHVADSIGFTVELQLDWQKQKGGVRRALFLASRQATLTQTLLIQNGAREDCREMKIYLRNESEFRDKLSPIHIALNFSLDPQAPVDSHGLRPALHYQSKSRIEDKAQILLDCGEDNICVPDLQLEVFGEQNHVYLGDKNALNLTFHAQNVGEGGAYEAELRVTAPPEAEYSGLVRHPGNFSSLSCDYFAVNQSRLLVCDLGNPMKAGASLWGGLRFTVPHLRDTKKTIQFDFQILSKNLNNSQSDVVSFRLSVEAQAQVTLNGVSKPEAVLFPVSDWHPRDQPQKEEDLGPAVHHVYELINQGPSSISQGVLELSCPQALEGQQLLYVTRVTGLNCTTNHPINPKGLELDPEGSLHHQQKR
Sequence (P08648 895-995 limits assumed): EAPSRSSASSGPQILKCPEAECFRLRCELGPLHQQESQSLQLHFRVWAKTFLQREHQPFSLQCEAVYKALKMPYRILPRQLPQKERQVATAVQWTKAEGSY
Sequence (P05556 21-728 limits assumed): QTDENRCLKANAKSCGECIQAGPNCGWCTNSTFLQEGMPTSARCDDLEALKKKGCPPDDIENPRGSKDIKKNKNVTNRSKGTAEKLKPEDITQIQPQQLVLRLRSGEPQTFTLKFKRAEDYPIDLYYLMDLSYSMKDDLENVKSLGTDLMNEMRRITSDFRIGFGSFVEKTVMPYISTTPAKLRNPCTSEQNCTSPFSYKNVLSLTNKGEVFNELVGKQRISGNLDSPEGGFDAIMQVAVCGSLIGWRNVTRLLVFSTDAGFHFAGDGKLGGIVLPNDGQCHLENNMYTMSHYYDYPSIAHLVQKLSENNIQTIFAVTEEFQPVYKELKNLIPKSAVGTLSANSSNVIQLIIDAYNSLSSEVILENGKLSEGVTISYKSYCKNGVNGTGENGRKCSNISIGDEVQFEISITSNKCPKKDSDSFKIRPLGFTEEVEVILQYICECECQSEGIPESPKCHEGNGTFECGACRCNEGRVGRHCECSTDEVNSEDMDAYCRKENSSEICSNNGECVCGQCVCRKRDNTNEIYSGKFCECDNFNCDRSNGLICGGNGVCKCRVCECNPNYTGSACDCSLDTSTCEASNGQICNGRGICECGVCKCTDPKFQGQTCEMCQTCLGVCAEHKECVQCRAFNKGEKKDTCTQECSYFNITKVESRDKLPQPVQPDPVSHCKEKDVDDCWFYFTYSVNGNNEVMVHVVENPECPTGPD
property_label: binding of rh-α5β1 complexed with antibody to C-14D12 on the sensor

1. A2-7F01: anti-α5β1 antibody, VH SEQ ID NO:91, VL SEQ ID NO:92 (antibody, V domains shown, A2-7F01 VH Sequence; A2-7F01 VL Sequence) VH: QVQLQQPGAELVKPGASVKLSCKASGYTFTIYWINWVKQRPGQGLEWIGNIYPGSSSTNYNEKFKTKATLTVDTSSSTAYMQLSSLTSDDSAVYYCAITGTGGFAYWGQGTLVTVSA VL: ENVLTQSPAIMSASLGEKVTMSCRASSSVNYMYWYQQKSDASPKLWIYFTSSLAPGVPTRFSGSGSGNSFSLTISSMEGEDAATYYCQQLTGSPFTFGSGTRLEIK = able to bind
2. A2-7A05: anti-α5β1 antibody, VH SEQ ID NO:77, VL SEQ ID NO:78; tested as mouse hybridoma antibody and as human IgG4 chimera (antibody, V domains shown, A2-7A05 VH Sequence; A2-7A05 VL Sequence, tested as mouse hybridoma antibody and as human IgG4 chimera) VH: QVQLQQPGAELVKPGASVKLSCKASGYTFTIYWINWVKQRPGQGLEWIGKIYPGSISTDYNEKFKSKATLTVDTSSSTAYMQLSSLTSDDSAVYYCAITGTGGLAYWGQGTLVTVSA VL: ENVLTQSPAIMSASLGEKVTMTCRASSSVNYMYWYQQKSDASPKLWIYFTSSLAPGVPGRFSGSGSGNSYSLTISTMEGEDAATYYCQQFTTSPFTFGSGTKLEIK = able to bind
